The reported numbers originate from the supplement of paper PMC10567573.

B1: FAM189A2 (parent)
chain: GSEAAVIPLDLGCTQVTQDGDIPN

Variants of: B1
Test Details: protein stability index of a GFP-peptide fusion (GPS, HEK-293T) (PSI 1-6); higher = more stable;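 note: lentivirally expressed fusions sorted by FACS into six bins by GFP to DsRed ratio, PSI derived from sequencing read proportions per bin multiplied by bin number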
Assay Setup: c terminus: a fixed tail appended
Please respond with reported protein stability index for every item in the list.
Number, no unit, nothing else.

Query: Which protein stability index is listed for L9Q ?
Result: 5.69

Query: Which protein stability index is listed for D19M ?
Result: 4.61

Query: Which protein stability index is listed for A4I ?
Result: 4.37

Query: Which protein stability index is listed for P8I ?
Result: 1.87

Query: Which protein stability index is listed for P23M ?
Result: 5.22

Query: Which protein stability index is listed for E3T ?
Result: 5.11

Query: Which protein stability index is listed for D21K ?
Result: 5.48

Query: Which protein stability index is listed for Q18K ?
Result: 5.17

Query: Which protein stability index is listed for G12D ?
Result: 5.61

Query: Which protein stability index is listed for Q15P ?
Result: 5.33

Query: Which protein stability index is listed for V6M ?
Result: 5.25

Query: Which protein stability index is listed for I22C ?
Result: 5.67

Query: Which protein stability index is listed for P23W ?
Result: 4.07

Query: Which protein stability index is listed for A4V ?
Result: 4.97

Query: Which protein stability index is listed for E3D ?
Result: 5.38

Query: Which protein stability index is listed for N24D ?
Result: 5.42

Query: Which protein stability index is listed for L11F ?
Result: 5.39

Query: Which protein stability index is listed for D10L ?
Result: 4.2

Query: Which protein stability index is listed for Q15S ?
Result: 5.4

Query: Which protein stability index is listed for G1H ?
Result: 5.29

Query: Which protein stability index is listed for T14N ?
Result: 5.31

Query: Which protein stability index is listed for T17H ?
Result: 5.17

Query: Which protein stability index is listed for S2G ?
Result: 5.03

Query: Which protein stability index is listed for T17K ?
Result: 5.4

Query: Which protein stability index is listed for V6H ?
Result: 5.51

Query: Which protein stability index is listed for A4H ?
Result: 4.7

Query: Which protein stability index is listed for D19A ?
Result: 5.36

Query: Which protein stability index is listed for P23N ?
Result: 5.87

Query: Which protein stability index is listed for A5R ?
Result: 5.2

Query: Which protein stability index is listed for D19L ?
Result: 4.78

Query: Which protein stability index is listed for E3Y ?
Result: 4.18

Query: Which protein stability index is listed for L9Y ?
Result: 5.31

Query: Which protein stability index is listed for V6T ?
Result: 5.58

Query: Which protein stability index is listed for N24V ?
Result: 5.17

Query: Which protein stability index is listed for I22Q ?
Result: 5.31

Query: Which protein stability index is listed for L11A ?
Result: 5.54

Query: Which protein stability index is listed for C13K ?
Result: 5.18

Query: Which protein stability index is listed for G12W ?
Result: 4.62

Query: Which protein stability index is listed for E3K ?
Result: 5.35

Query: Which protein stability index is listed for E3S ?
Result: 5.1

Query: Which protein stability index is listed for N24M ?
Result: 4.95

Query: Which protein stability index is listed for D19R ?
Result: 4.57

Query: Which protein stability index is listed for A4D ?
Result: 5.61

Query: Which protein stability index is listed for P8A ?
Result: 4.68

Query: Which protein stability index is listed for D21G ?
Result: 5.27

Query: Which protein stability index is listed for A5T ?
Result: 5.43

Query: Which protein stability index is listed for D21W ?
Result: 3.76

Query: Which protein stability index is listed for I7N ?
Result: 5.66

Query: Which protein stability index is listed for T17A ?
Result: 5.21

Query: Which protein stability index is listed for D21I ?
Result: 4.45

Query: Which protein stability index is listed for C13F ?
Result: 5.04

Query: Which protein stability index is listed for V16S ?
Result: 4.88

Query: Which protein stability index is listed for I7G ?
Result: 5.6

Query: Which protein stability index is listed for C13P ?
Result: 5.67

Query: Which protein stability index is listed for C13R ?
Result: 5.33

Query: Which protein stability index is listed for G1K ?
Result: 5.25

Query: Which protein stability index is listed for L11N ?
Result: 5.24

Query: Which protein stability index is listed for C13H ?
Result: 5.63

Query: Which protein stability index is listed for I7L ?
Result: 4.86

Query: Which protein stability index is listed for A5H ?
Result: 5.2

Query: Which protein stability index is listed for P8N ?
Result: 5.16

Query: Which protein stability index is listed for I22F ?
Result: 5.15

Query: Which protein stability index is listed for V16Y ?
Result: 5.05

Query: Which protein stability index is listed for G20R ?
Result: 4.89

Query: Which protein stability index is listed for C13V ?
Result: 4.77

Query: Which protein stability index is listed for G20L ?
Result: 5.04

Query: Which protein stability index is listed for L11T ?
Result: 5.44

Query: Which protein stability index is listed for V16R ?
Result: 5

Query: Which protein stability index is listed for S2Y ?
Result: 4.8
